Target: ER (Homo sapiens (Human), UniProt P03372)
Sequence (P03372 whole entry): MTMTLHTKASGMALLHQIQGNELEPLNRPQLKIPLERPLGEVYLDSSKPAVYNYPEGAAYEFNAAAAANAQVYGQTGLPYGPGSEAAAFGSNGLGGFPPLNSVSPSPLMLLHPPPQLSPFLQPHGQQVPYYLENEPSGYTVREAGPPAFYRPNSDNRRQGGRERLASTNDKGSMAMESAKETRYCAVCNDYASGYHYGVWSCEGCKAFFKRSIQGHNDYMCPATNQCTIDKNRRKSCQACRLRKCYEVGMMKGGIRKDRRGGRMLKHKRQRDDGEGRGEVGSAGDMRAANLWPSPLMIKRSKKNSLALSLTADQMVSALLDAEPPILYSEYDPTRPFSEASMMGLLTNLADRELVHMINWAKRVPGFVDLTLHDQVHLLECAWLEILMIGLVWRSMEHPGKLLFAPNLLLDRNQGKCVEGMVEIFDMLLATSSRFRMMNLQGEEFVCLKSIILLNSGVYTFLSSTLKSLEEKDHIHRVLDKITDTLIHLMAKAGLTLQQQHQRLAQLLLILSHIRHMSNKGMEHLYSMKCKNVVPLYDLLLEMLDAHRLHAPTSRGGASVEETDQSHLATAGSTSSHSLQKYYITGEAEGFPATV
Assay: Western blot analysis (Compounds B1-B278)
Format: cell-based
Conditions: ER degradation by traditional Western blot; DC50 classes
Measure Name: Traditional Western Degradation Potency

Molecule	Traditional Western Degradation Potency
C[C@@H]1Cc2c([nH]c3ccccc23)[C@@H](c2c(F)cc(N3CCCC4(CN(C(=O)CN5Cc6cc7c(cc6C5)C(=O)N(C5CCC(=O)NC5=O)C7=O)C4)C3)cc2F)N1CC(F)F (stereo partly shown)	B (“B”: 10-100 nM)
C[C@@H]1Cc2c([nH]c3ccccc23)[C@@H](c2ccc(C3=CCC4(CC3)CCN(C(=O)CN3Cc5cc6c(cc5C3)C(=O)N(C3CCC(=O)NC3=O)C6=O)CC4)cc2F)N1CC(F)F (stereo partly shown)	C (“C”: >100 nM)
C[C@@H]1Cc2c([nH]c3ccccc23)[C@@H](c2ccc(C3CCC(C(=O)N4CCC(N5Cc6cc7c(cc6C5)C(=O)N(C5CCC(=O)NC5=O)C7=O)CC4)CC3)nc2)N1CC(F)F (stereo partly shown)	C (“C”: >100 nM)
COc1cc([C@H]2CC[C@@H](C(=O)N3CCC(N4Cc5cc6c(cc5C4)C(=O)N(C4CCC(=O)NC4=O)C6=O)CC3)CC2)ccc1[C@@H]1c2[nH]c3ccccc3c2C[C@@H](C)N1CC(F)F (stereo partly shown)	C (“C”: >100 nM)
C[C@@H]1Cc2c([nH]c3ccccc23)[C@@H](c2c(F)cc(N3CCC(N4CC(CC(=O)N5Cc6cc7c(cc6C5)C(=O)N(C5CCC(=O)NC5=O)C7=O)C4)CC3)cc2F)N1CC(F)F (stereo partly shown)	C (“C”: >100 nM)

API: value(readout=Traditional Western Degradation Potency, system=ER (Homo sapiens (Human), UniProt P03372)) for record C[C@@H]1Cc2c([nH]c3ccccc23)[C@@H](c2ccc(C3=CCC(C(=O)N4CCC(N5Cc6cc7c(cc6C5)C(=O)N(C5CCC(=O)NC5=O)C7=O)CC4)CC3)cc2)N1CC(F)F (stereo partly shown)
B (“B”: 10-100 nM)

API: value(readout=Traditional Western Degradation Potency, system=ER (Homo sapiens (Human), UniProt P03372)) for record C[C@@H]1Cc2c([nH]c3ccccc23)[C@@H](c2c(F)cc(N3CCC(N4CC(CN5Cc6cc7c(cc6C5)C(=O)N(C5CCC(=O)NC5=O)C7=O)C4)CC3)cc2F)N1CC(F)F (stereo partly shown)
B (“B”: 10-100 nM)

API: value(readout=Traditional Western Degradation Potency, system=ER (Homo sapiens (Human), UniProt P03372)) for record C[C@@H]1Cc2c([nH]c3ccccc23)[C@@H](c2c(F)cc(N3CCC(CC(=O)N4Cc5cc6c(cc5C4)C(=O)N(C4CCC(=O)NC4=O)C6)CC3)cc2F)N1CC(F)F (stereo partly shown)
C (“C”: >100 nM)

API: value(readout=Traditional Western Degradation Potency, system=ER (Homo sapiens (Human), UniProt P03372)) for record C[C@@H]1Cc2c([nH]c3ccccc23)[C@@H](c2c(F)cc(C3CCC(C(=O)N4CCC(F)(CN5Cc6cc7c(cc6C5)C(=O)N(C5CCC(=O)NC5=O)C7=O)CC4)CC3)cc2F)N1CC(F)F (stereo partly shown)
B (“B”: 10-100 nM)

# credit: patent US20260007681A1
